assay system: MARV NP (amino acids 19–370) (Lake Victoria marburgvirus)
Sequence (P27588 19-370 limits assumed): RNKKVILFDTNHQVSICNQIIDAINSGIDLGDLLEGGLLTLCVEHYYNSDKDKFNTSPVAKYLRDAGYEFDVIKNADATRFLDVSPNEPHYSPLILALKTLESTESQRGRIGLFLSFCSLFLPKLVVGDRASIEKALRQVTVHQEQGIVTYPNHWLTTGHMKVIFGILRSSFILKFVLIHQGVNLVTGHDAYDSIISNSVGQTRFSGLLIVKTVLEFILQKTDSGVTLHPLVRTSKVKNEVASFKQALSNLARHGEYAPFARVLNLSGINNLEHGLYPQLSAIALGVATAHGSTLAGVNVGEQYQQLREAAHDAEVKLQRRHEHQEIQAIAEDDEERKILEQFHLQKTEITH
Assay type: binding, Marburg virus
Measured S/N AVE, listed per entry for reference.

molecule	assay system	S/N AVE
O=C(/C=C/c1ccc(O)cc1)c1ccc(O[C@@H]2O[C@H](CO)[C@@H](O)[C@H](O)[C@H]2O)cc1O [GC4, Neoisoliquiritin]	MARV NP (amino acids 19–370) (Lake Victoria marburgvirus)	1.72
O=c1cc(-c2ccc(O)cc2)oc2c([C@@H]3OC[C@H](O)[C@H](O)[C@H]3O)c(O)c([C@@H]3O[C@H](CO)[C@@H](O)[C@H](O)[C@H]3O)c(O)c12 [GC3, Schaftoside]	MARV NP (amino acids 19–370) (Lake Victoria marburgvirus)	1.62
COc1ccc(-c2coc3cc(O[C@@H]4O[C@H](CO)[C@@H](O)[C@H](O)[C@H]4O)ccc3c2=O)cc1 [GC5, Ononin]	MARV NP (amino acids 19–370) (Lake Victoria marburgvirus)	1.76
O=C(/C=C/c1ccc(O[C@@H]2O[C@H](CO)[C@@H](O)[C@H](O)[C@H]2O)cc1)c1ccc(O)cc1O [GC14, Isoliquiritin]	MARV NP (amino acids 19–370) (Lake Victoria marburgvirus)	1.73
CC1(C)[C@@H](O[C@H]2O[C@H](C(=O)O)[C@@H](O)[C@H](O)[C@H]2O[C@@H]2O[C@H](C(=O)O)[C@@H](O)[C@H](O)[C@H]2O)CC[C@]2(C)[C@H]3C(=O)C=C4[C@@H]5C[C@@](C)(C(=O)O)CC[C@]5(C)CC[C@@]4(C)[C@]3(C)CC[C@@H]12 [GC6, Glycyrrhizin]	MARV NP (amino acids 19–370) (Lake Victoria marburgvirus)	0.96
COc1ccc(-c2coc3cc(O)ccc3c2=O)cc1O [GC9, Calycosin]	MARV NP (amino acids 19–370) (Lake Victoria marburgvirus)	1.36
O=C1C[C@@H](c2ccc(O)cc2)Oc2cc(O)ccc21 [GC8, Liquiritigenin]	MARV NP (amino acids 19–370) (Lake Victoria marburgvirus)	1.50
C=CC(C)(C)c1cc(/C=C/C(=O)c2ccc(O)cc2)c(OC)cc1O [GC13, Licochalcone A]	MARV NP (amino acids 19–370) (Lake Victoria marburgvirus)	6.85
